Kindly supply the reported pEC50 values for the records listed here.
- EXPERIMENTAL TARGET: UniProt:Q5NUL3
- Sequence (Q5NUL3 whole entry): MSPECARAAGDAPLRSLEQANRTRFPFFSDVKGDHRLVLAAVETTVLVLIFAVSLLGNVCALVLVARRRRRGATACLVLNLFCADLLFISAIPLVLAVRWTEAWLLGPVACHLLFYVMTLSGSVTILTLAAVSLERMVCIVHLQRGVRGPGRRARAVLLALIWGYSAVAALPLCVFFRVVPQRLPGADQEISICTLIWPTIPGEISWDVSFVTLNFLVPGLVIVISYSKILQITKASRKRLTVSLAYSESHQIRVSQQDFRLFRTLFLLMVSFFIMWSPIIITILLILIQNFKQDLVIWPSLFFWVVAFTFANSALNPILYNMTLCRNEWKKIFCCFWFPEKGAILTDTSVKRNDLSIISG
- ASSAY PROTOCOL: Agonist activity at N-terminal FLAG tagged human FFAR4 transfected in African green monkey COS-7 cells assessed as accumulation of inositol phosphate incubated for 90 mins by TopCount NXT counter based analysis
Answers are plain numbers, as −log10 of the molar value.

Solved entries (count: 2):
>>> df
                              record_smiles  measurement_kind  quantitative_result
0  Cc1cc(OCc2nc(N)nc(NCCc3c(F)cccc3F)n2)cc(N2CCCC2=O)c1             pEC50                 8.05
1  COc1cccc(CCNc2nc(N)nc(COc3cc(C)cc(N4CCCC4=O)c3)n2)c1             pEC50                 7.85

Please find the next compound below.
For the compound Cc1ccc(Nc2nc(N)nc(COc3cc(N4CCCC4=O)ccc3C(F)(F)F)n2)cc1Cl , what pEC50 is on record?
4.92
